Target: T1, Recombinant human CD40L (human, UniProt P29965 108-261, limits assumed)
T1 construct: also called CD40 ligand
T1 sequence (looked up): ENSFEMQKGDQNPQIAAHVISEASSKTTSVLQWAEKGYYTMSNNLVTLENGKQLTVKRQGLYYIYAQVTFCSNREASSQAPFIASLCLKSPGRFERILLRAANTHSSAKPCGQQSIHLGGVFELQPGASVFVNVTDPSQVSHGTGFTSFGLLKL
Assay: CD40L/CD40-Fc receptor binding assay;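 further: plate assay with coated human CD40-Fc, bound ligand detected via HRP anti-biotin antibody and TMB, OD at 450 nm, lower signal indicates stronger inhibition by dAb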
readout.kind: binding result

Exercise: Please give the documented binding result of DOM-17 (other, VH dAb) VH: EVQLLESGGGLVQPGGSLRLSCAASGFTFEDYGMGWARQAPGKGLEWVSSIGPLGLWTYYADSAKGRFTISRDNSKNTLYLQMNSLRAEDTAVYYCAKSPLEGLITNFDYWGQGTLVTVSS
Key: binds

Exercise: Please give the documented binding result of DOM.187 (other, VH dAb) VH: EVQLLESGGGLVQPGGSLRLSCAASGFTFSSYSMVWVRQAPGKGLEWVSGINRGGTRTYYADSVKGRFTISRDNSKNTLYLQMNSLRAEDTAVYYCAKGWRRGFDYWGQGTLVTVSS
Key: binds
